Target: FLT3 (Homo sapiens)
Construct: FLT3(DKIN); made in house
Sequence (P36888 610-943 limits assumed): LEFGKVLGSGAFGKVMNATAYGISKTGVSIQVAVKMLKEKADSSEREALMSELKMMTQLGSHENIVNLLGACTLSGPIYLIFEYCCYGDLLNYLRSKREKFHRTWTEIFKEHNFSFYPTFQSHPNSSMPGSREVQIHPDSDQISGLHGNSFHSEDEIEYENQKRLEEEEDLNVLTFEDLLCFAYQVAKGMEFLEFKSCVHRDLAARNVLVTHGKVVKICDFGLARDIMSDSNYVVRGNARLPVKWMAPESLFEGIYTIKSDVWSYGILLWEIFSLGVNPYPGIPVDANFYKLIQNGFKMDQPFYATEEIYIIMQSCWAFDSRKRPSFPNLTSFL
Test: Binding constant (Kd) measurement, phage-displayed kinase competition binding assay
Conditions: FLT3(JMminus) construct
measurement name: Binding Assay: FLT3(JMminus)

Below, each entry is followed by its recorded Binding Assay: FLT3(JMminus) result.
• CC(C)(C)c1cc(NC(=O)Nc2ccc(NC(=O)c3nn(-c4cccc(C(F)(F)F)c4)c(=O)cc3O)cc2)no1 = + + +
• COc1ccc(C(=O)c2c[nH]c(C(=O)Nc3ccc(NC(=O)Nc4cc(C(C)(C)C)on4)cc3)c2)cc1 = + + +
• Cc1nc(-c2ccccc2)sc1C(=O)Nc1ccc(NC(=O)Nc2cc(C(C)(C)C)on2)cc1 = + + + +
• CC(C)(C)c1cc(NC(=O)Nc2ccc(C(=O)/C=C/c3ccncc3)cc2)no1 = + + + +
• COC(=O)c1cccc(Sc2ncc(NC(=O)Nc3cc(C(C)(C)C)on3)s2)c1 = + + + +
• CC(C)(C)c1cc(NC(=O)Nc2ccc(C(=O)Nc3nccnc3N)cc2)no1 = + + + +
• CC(C)(C)c1cc(NC(=O)Nc2ccc(NC(=O)c3sccc3CCc3cccc(C(F)(F)F)c3)cc2)no1 = + + + +
• CC(C)c1nnsc1C(=O)Nc1ccc(NC(=O)Nc2cc(C(C)(C)C)on2)cc1 = + + +

Lookup: Need Binding Assay: FLT3(JMminus), item `COc1cc(C(=O)Nc2ccc(NC(=O)Nc3cc(C(C)(C)C)on3)cc2)nc(OC)n1`
Found: + + + +

Lookup: Need Binding Assay: FLT3(JMminus), item `CC(C)(C)c1cc(NC(=O)Nc2ccc(NC(=O)c3cc4ccccc4[nH]3)cc2)no1`
Found: + + + +

* * *

system: MV4,11 cells; assay: FLT3 assay using MV4,11 cells (cellular proliferation, MTS); format: cell-based, human; settings: cell assay code CS0001
measurement name: Cell Assay: CS0001:IC50

Below, each entry is followed by its recorded Cell Assay: CS0001:IC50 result.
• CC1CCCN(CCOc2ccc(NC(=O)Nc3cc(C(C)(C)C)on3)cc2)C1 (stereo not shown) [Compound G44] = + +
• CC(C)(C)c1cc(NC(=O)Nc2ccc(NC(=O)c3nnsc3Sc3ccc(Cl)cc3)cc2)no1 [Compound N71] = + +
• CC(C)(C)c1cc(NC(=O)Nc2ccc(OCC3CCC3)cc2)no1 [Compound G39] = + + + +
• CNC(=O)c1ccc(NC(=O)Nc2cc(C(C)(C)C)on2)cc1 [Compound N85] = + + +
• Cc1ccc(COc2ccc(NC(=O)Nc3cc(C(C)(C)C)on3)cc2)cc1 [Compound G15] = + + + +

Lookup: Need Cell Assay: CS0001:IC50, item Cn1nc(C(F)(F)F)c2cc(C(=O)Nc3ccc(NC(=O)Nc4cc(C(C)(C)C)on4)cc3)sc21 [Compound N64]
Found: + + +

Lookup: Need Cell Assay: CS0001:IC50, item COc1ccc(-c2noc(-c3ccc(NC(=O)Nc4cc(C(C)(C)C)on4)cc3)n2)c2ccccc12 [Compound P3]
Found: + + +

Lookup: Need Cell Assay: CS0001:IC50, item COC(=O)c1ccc(C(=O)Nc2ccc(NC(=O)Nc3cc(C(C)(C)C)on3)cc2)nc1 [Compound N12]
Found: + + +

Lookup: Need Cell Assay: CS0001:IC50, item Cc1nc(C(=O)Nc2ccc(NC(=O)Nc3cc(C(C)(C)C)on3)cc2)c(C(F)(F)F)o1 [Compound N55]
Found: + + +
